These entries and their values trace back to patent US12653809B2.

Measured IC50 of individual entries
target: Cbl-b (truncated variant, UniProt number Q13191) (Homo sapiens, UniProt Q13191); construct: made in house; experiment: Cbl-b activity assay (TR-FRET, interaction of Cbl-b with UbcH5B-Ub); format: biochemical; details: Biological Example 1A; low or high conditions not stated; read-out: IC50 values in the Cbl-b inhibition assay of Biological Example 1A
Sequence (Q13191 36-427): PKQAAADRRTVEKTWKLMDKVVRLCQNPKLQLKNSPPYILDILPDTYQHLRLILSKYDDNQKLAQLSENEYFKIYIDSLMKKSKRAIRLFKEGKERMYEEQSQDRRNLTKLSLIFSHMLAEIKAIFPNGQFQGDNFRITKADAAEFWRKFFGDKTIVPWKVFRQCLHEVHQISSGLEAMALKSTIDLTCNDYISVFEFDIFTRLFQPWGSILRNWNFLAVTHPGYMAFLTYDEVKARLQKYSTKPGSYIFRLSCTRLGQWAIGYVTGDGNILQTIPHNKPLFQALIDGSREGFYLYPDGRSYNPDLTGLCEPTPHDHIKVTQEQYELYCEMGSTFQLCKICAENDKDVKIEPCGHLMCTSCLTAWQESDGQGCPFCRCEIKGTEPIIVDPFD

# example entries with known answers
compound=C[C@H](Sc1nncn1C)c1cccc(C(=O)Nc2cc(C(F)(F)F)ccn2)c1 testedon="Cbl-b (truncated variant, UniProt number Q13191) (Homo sapiens, UniProt Q13191)" measvalue="1 to 5 µM"
compound=C[C@H](Sc1nncn1C)c1cccc(-n2cc(-c3ccc(C#N)cc3)nn2)c1 testedon="Cbl-b (truncated variant, UniProt number Q13191) (Homo sapiens, UniProt Q13191)" measvalue="1 to 5 µM"

Input line: Quick check: IC50 of C[C@H](Sc1nncn1C)c1cccc(-n2cc(-c3ccc(C(=O)O)cc3)nn2)c1 ?
Output line: ≥ 5 µM

Input line: Quick check: IC50 of Cc1cnnc(NC(=O)Nc2cccc([C@H](C)Sc3nncn3C)c2)c1 ?
Output line: 1 to 5 µM

Input line: Quick check: IC50 of C[C@H](Cc1nncn1C)c1cccc(C(=O)Nc2cccc(C(F)(F)F)n2)c1 ?
Output line: ≥ 5 µM

Input line: Quick check: IC50 of C[C@@H](Sc1nncn1C)c1cccc(-c2cc(-c3ccccc3)no2)c1 ?
Output line: ≥ 5 µM

Input line: Quick check: IC50 of C[C@H](Sc1nncn1C)c1cccc(-n2ncc(-c3ccc(C(=O)O)cc3)n2)c1 ?
Output line: ≥ 5 µM

Input line: Quick check: IC50 of CC(Sc1nncn1C)c1ccnc(-n2ncc(-c3ccccc3)n2)c1 (stereo not drawn) ?
Output line: ≥ 5 µM

Input line: Quick check: IC50 of C[C@H](Sc1nncn1C)c1cccc(-n2cc(-c3cccc(C(=O)O)c3)nn2)c1 ?
Output line: ≥ 5 µM

Input line: Quick check: IC50 of CC(Sc1nncn1C)c1cccc(-c2cc(-c3ccccn3)no2)c1 (stereo not drawn) ?
Output line: ≥ 5 µM

Input line: Quick check: IC50 of C[C@H](Cc1nncn1C)c1cccc(-c2n[nH]c3ccc(C(F)(F)F)nc23)c1 ?
Output line: 0.1 to 1 µM

Input line: Quick check: IC50 of C[C@H](Sc1nncn1C)c1cccc(-n2ncc(-c3cccc(C(=O)O)c3)n2)c1 ?
Output line: 1 to 5 µM

Input line: Quick check: IC50 of CNC(=O)c1ccc(-c2cc(-c3cccc([C@H](C)Sc4nncn4C)c3)on2)cc1 ?
Output line: 1 to 5 µM

Input line: Quick check: IC50 of C[C@H](Sc1nncn1C)c1cccc(-n2cc(-c3ccc(C(N)=O)cc3)nn2)c1 ?
Output line: 1 to 5 µM

----------
Measured pIC50 of individual entries
target: Cbl-b (truncated variant, UniProt number Q13191) (Homo sapiens, UniProt Q13191); construct: made in house; experiment: Cbl-b activity assay (TR-FRET, interaction of Cbl-b with UbcH5B-Ub); assay type: biochemical; details: Biological Example 1A; low or high conditions not stated; read-out: IC50 values in the Cbl-b inhibition assay of Biological Example 1A
pIC50: −log10 of the molar value.

# example entries with known answers
molecule=C[C@H](Cc1nncn1C)c1cccc(NC(=O)N2CC(C)(C)Oc3cccnc32)c1 measurementtype=pIC50 measvalue="> 7.00"
molecule="CNC(=O)C1(C(F)(F)F)CCN(C(=O)Nc2cccc([C@H](C)Sc3nncn3C)c2)C1 (some centres unmarked)" measurementtype=pIC50 measvalue="5.30 to 6.00"

Input line: # value lookup — system Cbl-b (truncated variant, UniProt number Q13191) (Homo sapiens, UniProt Q13191), readout pIC50, item C[C@H](Cc1nncn1C)c1cccc(-c2n[nH]c3c(CN4CC[C@H](F)C4)cc(C(F)(F)F)nc23)c1
Output line: > 7.00

Input line: # value lookup — system Cbl-b (truncated variant, UniProt number Q13191) (Homo sapiens, UniProt Q13191), readout pIC50, item CC(Sc1nncn1C)c1cccc(-n2cc(-c3ccccc3)nn2)c1 (centres unmarked)
Output line: 5.30 to 6.00

Input line: # value lookup — system Cbl-b (truncated variant, UniProt number Q13191) (Homo sapiens, UniProt Q13191), readout pIC50, item C[C@H](Sc1nncn1C)c1cccc(-n2cc(-c3cccc(C(N)=O)c3)nn2)c1
Output line: 5.30 to 6.00

Input line: # value lookup — system Cbl-b (truncated variant, UniProt number Q13191) (Homo sapiens, UniProt Q13191), readout pIC50, item CNC(=O)c1cccc(-c2cn(-c3cccc([C@H](C)Sc4nncn4C)c3)nn2)c1
Output line: ≤ 5.30

Input line: # value lookup — system Cbl-b (truncated variant, UniProt number Q13191) (Homo sapiens, UniProt Q13191), readout pIC50, item CN1CCC2(CC1)CN(C(=O)Nc1cccc(C3(Cc4nncn4C)COC3)c1)c1ncccc12
Output line: 6.00 to 7.00

Input line: # value lookup — system Cbl-b (truncated variant, UniProt number Q13191) (Homo sapiens, UniProt Q13191), readout pIC50, item CC(Sc1nncn1C)c1cccc(-c2cc(-c3cccc(C(F)(F)F)c3)no2)c1 (centres unmarked)
Output line: 5.30 to 6.00
